target or system: T1, PhoB (Pseudomonas aeruginosa PAO1, UniProt P23620 1-229)
T1 sequence: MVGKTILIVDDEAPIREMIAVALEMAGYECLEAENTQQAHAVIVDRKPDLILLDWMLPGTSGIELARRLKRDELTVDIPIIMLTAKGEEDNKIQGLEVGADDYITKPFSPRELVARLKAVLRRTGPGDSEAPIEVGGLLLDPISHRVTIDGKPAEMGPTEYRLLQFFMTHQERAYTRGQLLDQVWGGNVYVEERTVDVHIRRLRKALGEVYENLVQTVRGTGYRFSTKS
run description: EMSA
measurement parameters: protein: recombinant; tags: C-terminal His (pET-28b, NcoI-XhoI); chain copies: 2; label: biotin 3'-end; blunt
endpoint label: binding result

[[record]]
binder = "P1+P2 (dsDNA) DNA 1: TAGCAAGGGTCCGGGTTCACCGAAATCTATCTCATTTGCTAGTTATAAAATTATGAAAT DNA 2: ATTTCATAATTTTATAACTAGCAAATGAGATAGATTTCGGTGAACCCGGACCCTTGCTA"
reading = "binds"

[[record]]
binder = "P2+P3 (dsDNA) DNA 1: GTTATAAAATTATGAAATTTGCATAAATTCTTCAGCTTCCTATTTGGAGGAAGTGAAG DNA 2: CTTCACTTCCTCCAAATAGGAAGCTGAAGAATTTATGCAAATTTCATAATTTTATAAC"
reading = "binds"

